Values were extracted from patent US11311512B2.

experiment: Pharmacokinetic study in rats, testosterone plasma concentrations after oral gavage; conditions: testosterone in plasma; oral gavage; SD female rats; dose-normalized
propertyLabel: AUC0-24 h fold increase compared with TU group (fold)
Write the number in fold without appending the unit.

**Q:** Need AUC0-24 h fold increase compared with TU group of CCCCCCCCCCCCCCCC(=O)OCC(COC(=O)CCCCCCCCCCCCCCC)OC(=O)CC(C)CC(=O)Oc1cc(C)cc(C)c1C(C)(C)CC(=O)O[C@H]1CC[C@H]2[C@@H]3CCC4=CC(=O)CC[C@]4(C)[C@H]3CC[C@]12C (stereo partly shown) , thanks.
**A:** 58.5

**Q:** Need AUC0-24 h fold increase compared with TU group of CCCCCCCCCCCCCCCC(=O)OCC(COC(=O)CCCCCCCCCCCCCCC)OC(=O)C(C)CCCCCCCC(=O)O[C@H]1CC[C@H]2[C@@H]3CCC4=CC(=O)CC[C@]4(C)[C@H]3CC[C@]12C (stereo partly shown) , thanks.
**A:** 15.8

**Q:** Need AUC0-24 h fold increase compared with TU group of CCCCCCCCCCCCCCCC(=O)OCC(COC(=O)CCCCCCCCCCCCCCC)OC(=O)CCCCC(=O)OCO[C@H]1CC[C@H]2[C@@H]3CCC4=CC(=O)CC[C@]4(C)[C@H]3CC[C@]12C , thanks.
**A:** 44.0

**Q:** Need AUC0-24 h fold increase compared with TU group of CCCCCCCCCCCCCCCC(=O)OCC(COC(=O)CCCCCCCCCCCCCCC)OC(=O)CC(C)CC(=O)O[C@H]1CC[C@H]2[C@@H]3CCC4=CC(=O)CC[C@]4(C)[C@H]3CC[C@]12C (stereo partly shown) , thanks.
**A:** 0.3

====

assay: Pharmacokinetic study in greyhound dogs, testosterone plasma concentrations after oral administration; format: in vivo; details: oral capsules, conscious greyhound dogs, fed state, normalized to 2 mg/kg equivalent testosterone dose, TU as Andriol Testocaps, Compound 13 in SEDDS
Could you please report measured Cmax for the items listed next?
Write the number in nM without appending the unit.

**Q:** Need Cmax of CCCCCCCCCCCCCCCC(=O)OCC(COC(=O)CCCCCCCCCCCCCCC)OC(=O)CCCCCCCCC(=O)O[C@H]1CC[C@H]2[C@@H]3CCC4=CC(=O)CC[C@]4(C)[C@H]3CC[C@]12C [Compound 13] , thanks.
**A:** 455

**Q:** Need Cmax of CCCCCCCCCCC(=O)O[C@H]1CC[C@H]2[C@@H]3CCC4=CC(=O)CC[C@]4(C)[C@H]3CC[C@]12C [TU, testosterone undecanoate, reference compound] , thanks.
**A:** 75.4

====

assay: Pharmacokinetic study in rats, testosterone plasma concentrations after oral gavage; details: testosterone in plasma; oral gavage; conscious carotid artery cannulated SD female rats; normalized to 2 mg/kg equivalent testosterone dose
Could you please report measured Cmax for the items listed next?
Write the number in nM without appending the unit.

**Q:** Need Cmax of CCCCCCCCCCCCCCCC(=O)OCC(COC(=O)CCCCCCCCCCCCCCC)OC(=O)CC(C)CCCCCCC(=O)Oc1cc(C)cc(C)c1C(C)(C)CC(=O)O[C@H]1CC[C@H]2[C@@H]3CCC4=CC(=O)CC[C@]4(C)[C@H]3CC[C@]12C (some centres unmarked) , thanks.
**A:** 428

**Q:** Need Cmax of CCCCCCCCCCCCCCCC(=O)OCC(COC(=O)CCCCCCCCCCCCCCC)OC(=O)C(C)CCCCCCCC(=O)O[C@H]1CC[C@H]2[C@@H]3CCC4=CC(=O)CC[C@]4(C)[C@H]3CC[C@]12C (some centres unmarked) , thanks.
**A:** 77

**Q:** Need Cmax of CCCCCCCCCCCCCCCC(=O)OCC(COC(=O)CCCCCCCCCCCCCCC)OC(=O)CCCCC(=O)Oc1cc(C)cc(C)c1C(C)(C)CC(=O)O[C@H]1CC[C@H]2[C@@H]3CCC4=CC(=O)CC[C@]4(C)[C@H]3CC[C@]12C , thanks.
**A:** 171

**Q:** Need Cmax of CCCCCCCCCCCCCCCC(=O)OCC(COC(=O)CCCCCCCCCCCCCCC)OC(=O)CCCCC(=O)OCO[C@H]1CC[C@H]2[C@@H]3CCC4=CC(=O)CC[C@]4(C)[C@H]3CC[C@]12C , thanks.
**A:** 232

**Q:** Need Cmax of CCCCCCCCCCC(=O)O[C@H]1CC[C@H]2[C@@H]3CCC4=CC(=O)CC[C@]4(C)[C@H]3CC[C@]12C [TU, testosterone undecanoate, reference compound] , thanks.
**A:** 5.6

====

assay: Pharmacokinetic study in rats, testosterone plasma concentrations after oral gavage; conditions: testosterone in plasma; oral gavage; conscious carotid artery cannulated SD female rats
propertyLabel: Tmax (h)
Write the number in h without appending the unit.

**Q:** Need Tmax of CCCCCCCCCCCCCCCC(=O)OCC(COC(=O)CCCCCCCCCCCCCCC)OC(=O)CC(C)CC(=O)O[C@H]1CC[C@H]2[C@@H]3CCC4=CC(=O)CC[C@]4(C)[C@H]3CC[C@]12C (stereo partly shown) , thanks.
**A:** 1.3

**Q:** Need Tmax of CCCCCCCCCCC(=O)O[C@H]1CC[C@H]2[C@@H]3CCC4=CC(=O)CC[C@]4(C)[C@H]3CC[C@]12C [TU, testosterone undecanoate, reference compound] , thanks.
**A:** 1.5

**Q:** Need Tmax of CCCCCCCCCCCCCCCC(=O)OCC(COC(=O)CCCCCCCCCCCCCCC)OC(=O)C(C)CCCCCCCC(=O)O[C@H]1CC[C@H]2[C@@H]3CCC4=CC(=O)CC[C@]4(C)[C@H]3CC[C@]12C (stereo partly shown) , thanks.
**A:** 1.3

**Q:** Need Tmax of CCCCCCCCCCCCCCCC(=O)OCC(COC(=O)CCCCCCCCCCCCCCC)OC(=O)CC(C)CCCCCCC(=O)Oc1cc(C)cc(C)c1C(C)(C)CC(=O)O[C@H]1CC[C@H]2[C@@H]3CCC4=CC(=O)CC[C@]4(C)[C@H]3CC[C@]12C (stereo partly shown) , thanks.
**A:** 1.5

**Q:** Need Tmax of CCCCCCCCCCCCCCCC(=O)OCC(COC(=O)CCCCCCCCCCCCCCC)OC(=O)CCCCC(=O)OCO[C@H]1CC[C@H]2[C@@H]3CCC4=CC(=O)CC[C@]4(C)[C@H]3CC[C@]12C , thanks.
**A:** 0.7

**Q:** Need Tmax of CCCCCCCCCCCCCCCC(=O)OCC(COC(=O)CCCCCCCCCCCCCCC)OC(=O)CCCCCCCCC(=O)O[C@H]1CC[C@H]2[C@@H]3CCC4=CC(=O)CC[C@]4(C)[C@H]3CC[C@]12C , thanks.
**A:** 0.9

**Q:** Need Tmax of CCCCCCCCCCCCCCCC(=O)OCC(COC(=O)CCCCCCCCCCCCCCC)OC(=O)CC(C)CC(=O)Oc1cc(C)cc(C)c1C(C)(C)CC(=O)O[C@H]1CC[C@H]2[C@@H]3CCC4=CC(=O)CC[C@]4(C)[C@H]3CC[C@]12C (stereo partly shown) , thanks.
**A:** 0.9

**Q:** Need Tmax of CCCCCCCCCCCCCCCC(=O)OCC(COC(=O)CCCCCCCCCCCCCCC)OC(=O)CCCCC(=O)Oc1cc(C)cc(C)c1C(C)(C)CC(=O)O[C@H]1CC[C@H]2[C@@H]3CCC4=CC(=O)CC[C@]4(C)[C@H]3CC[C@]12C , thanks.
**A:** 1.0

**Q:** Need Tmax of CCCCCCCCCCCCCCCC(=O)OCC(COC(=O)CCCCCCCCCCCCCCC)OC(=O)CCCCCCCCC(=O)Oc1cc(C)cc(C)c1C(C)(C)CC(=O)O[C@H]1CC[C@H]2[C@@H]3CCC4=CC(=O)CC[C@]4(C)[C@H]3CC[C@]12C , thanks.
**A:** 1.1

**Q:** Need Tmax of CCCCCCCCCCCCCCCC(=O)OCC(COC(=O)CCCCCCCCCCCCCCC)OC(=O)CCCCC(=O)O[C@H]1CC[C@H]2[C@@H]3CCC4=CC(=O)CC[C@]4(C)[C@H]3CC[C@]12C , thanks.
**A:** 1.3

====

test: Pharmacokinetic study in rats, testosterone plasma concentrations after oral gavage; settings: testosterone in plasma; oral gavage; conscious carotid artery cannulated SD female rats; normalized to 2 mg/kg equivalent testosterone dose
propertyLabel: Cmax (µM)
Write the number in µM without appending the unit.

**Q:** Need Cmax of CCCCCCCCCCCCCCCC(=O)OCC(COC(=O)CCCCCCCCCCCCCCC)OC(=O)CCCCC(=O)O[C@H]1CC[C@H]2[C@@H]3CCC4=CC(=O)CC[C@]4(C)[C@H]3CC[C@]12C , thanks.
**A:** 0.0699

**Q:** Need Cmax of CCCCCCCCCCCCCCCC(=O)OCC(COC(=O)CCCCCCCCCCCCCCC)OC(=O)CCCCCCCCC(=O)O[C@H]1CC[C@H]2[C@@H]3CCC4=CC(=O)CC[C@]4(C)[C@H]3CC[C@]12C , thanks.
**A:** 0.197

**Q:** Need Cmax of CCCCCCCCCCCCCCCC(=O)OCC(COC(=O)CCCCCCCCCCCCCCC)OC(=O)CC(C)CC(=O)Oc1cc(C)cc(C)c1C(C)(C)CC(=O)O[C@H]1CC[C@H]2[C@@H]3CCC4=CC(=O)CC[C@]4(C)[C@H]3CC[C@]12C (some centres unmarked) , thanks.
**A:** 0.419

**Q:** Need Cmax of CCCCCCCCCCCCCCCC(=O)OCC(COC(=O)CCCCCCCCCCCCCCC)OC(=O)CCCCCCCCC(=O)Oc1cc(C)cc(C)c1C(C)(C)CC(=O)O[C@H]1CC[C@H]2[C@@H]3CCC4=CC(=O)CC[C@]4(C)[C@H]3CC[C@]12C , thanks.
**A:** 0.487

**Q:** Need Cmax of CCCCCCCCCCCCCCCC(=O)OCC(COC(=O)CCCCCCCCCCCCCCC)OC(=O)CC(C)CC(=O)O[C@H]1CC[C@H]2[C@@H]3CCC4=CC(=O)CC[C@]4(C)[C@H]3CC[C@]12C (some centres unmarked) , thanks.
**A:** 0.0018
